test system: Plasmodium berghei; test: Luciferase/luciferin-expressing antifolate-resistant parasites were used to infect a culture of HepG2 cells that were pre-incubated with compounds. Infected hepatocytes emit light due to the luciferase reaction. Assay results are presented as the percent inhibition of light emission compared to control. […]; assay type: functional; conditions: sporozoite, FFLUC_HILL_SLOPE 3.15, FFLUC_R_SQUARED 0.597, read-out: LUCIFERASE INFECTION ASSAY - IC50
measurementName: IC50

Entry CC(C(=O)NCC1CCCCC1)N1CCN(c2ccc(F)cc2)CC1 (stereo unspecified) : reported IC50 = ?
> 10 µM

###

tested on: Plasmodium berghei; test: Luciferase/luciferin-expressing antifolate-resistant parasites were used to infect a culture of HepG2 cells that were pre-incubated with compounds. Infected hepatocytes emit light due to the luciferase reaction. Assay results are presented as the percent inhibition of light emission compared to control. […]; assay type: functional; details: sporozoite, PBLUC_HILL_SLOPE 3.18, PBLUC_R_SQUARED 0.696, read-out: LUCIFERASE INFECTION ASSAY - IC50
measurementName: pIC50
Notebook: values listed as pIC50 are -log10 of the concentration (mol/L).

Entry `O=C1Nc2ccc(Cl)cc2/C1=C/c1cn(Cc2ccccc2)nc1-c1cccnc1` : reported pIC50 = ?
5.25

Source: ChEMBL document CHEMBL4483862
